Readings of Kd for the listed molecules
Molecular target: mutant MGL (Homo sapiens, UniProt Q99685, L169S/L176S)
Sequence (Q99685 1-303 L169S/L176S): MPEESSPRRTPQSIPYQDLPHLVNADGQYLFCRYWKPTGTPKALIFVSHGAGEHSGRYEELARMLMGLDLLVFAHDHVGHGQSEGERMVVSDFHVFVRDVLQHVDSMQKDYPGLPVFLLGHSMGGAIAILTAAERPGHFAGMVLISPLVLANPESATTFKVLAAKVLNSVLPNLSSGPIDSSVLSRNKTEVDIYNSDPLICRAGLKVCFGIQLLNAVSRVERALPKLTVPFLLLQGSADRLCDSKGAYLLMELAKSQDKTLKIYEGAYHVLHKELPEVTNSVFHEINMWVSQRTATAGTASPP
Assay: MGL ThermoFluor assay - mutant
Format: binding
Conditions: ThermoFluor concentration-response, read-out: MGL mutant ThermoFluor Kd
# unit: nM | format: bare number

O=C(c1ccc(-c2cccc(C(F)(F)F)c2)cc1)N1CCN(C2CN(C(=O)c3cscn3)C2)CC1	7
O=C(c1ccc(Oc2cccc(F)n2)cc1)N1CC(N2CCN(C(=O)c3nccs3)CC2)C1	167
O=C(c1ccc(-c2ccccc2)c(F)c1)N1CC(N2CCN(C(=O)c3nccs3)CC2)C1	5
O=C(c1cscn1)N1CCN(C2CN(C(=O)c3sc4cc(-c5ccccc5)ccc4c3C(F)(F)F)C2)CC1	31
COc1cccc2c(C)c(C(=O)N3CC(N4CCN(C(=O)c5ccccc5)CC4)C3)[nH]c12	4980
O=C(c1ccc(-c2ccccc2)cc1)N1CC(N2CCN(C(=O)c3nccs3)CC2)C1	2.48

**Q:** Quick check: Kd of O=C(c1ccc(-c2ccccc2)cc1)N1CC(N2CCN(C(=O)c3nccs3)CC2c2ccccc2)C1 (centres unmarked) ?
**A:** 3.33

**Q:** Please do the same for O=C(c1ccc(Oc2cccc(Cl)c2)cc1)N1CC(N2CCN(C(=O)c3nccs3)CC2)C1 as well.
**A:** 4
